Quick record: pIC50, E. coli NTH-RNase E (Escherichia coli).
pIC50: −log10 of the molar value.

Worked set:
- molecule: "Cc1nnsc1-c1onc(C)c1C(=O)O/N=C/c1cccc(Cl)c1"
  test_result: "~1.74"
- molecule: "O=C1c2ccccc2NC(c2cc(Cl)cc(Cl)c2O)N1Cc1cccnc1 (stereo not shown)"
  test_result: "< 1.40"
- molecule: "Cc1onc(-c2c(Cl)cccc2Cl)c1C(=O)N=S(C)(C)=O"
  test_result: "< 1.40"

**Query** Hello, I am looking for reported pIC50 with E. coli NTH-RNase E (Escherichia coli) for Cc1c(C(=O)NNc2cc(C(F)(F)F)ccc2Cl)n(C)oc1=O . Could you help?
**Result** ~2.49
